assay: A CellTox Green Cytotoxicity Assay to monitor cytotoxicity in HEK293 cells - 40 hour (AID 1224871); details: CellTox Green fluorescence; series mostly up to 76.8 µM; further: nearly all actives have a fitted effect of over 45% in size
Records with an inconclusive call do not appear. The source made the active and inactive calls. The call rests on the fitted dose curve; in most records, active means well fitted activation curve with a large enough effect in the repeat runs; inconclusive means weak or mixed curves; inactive means flat fitted curve, though single readings scatter.
Give one outcome, nothing more. List: active, inactive

Task: Recorded test outcome, item CN1CCN2c3ccccc3Cc3ccccc3C2C1 (stereo not given)
Result: inactive

Task: Answer briefly: the call reported for Cc1nc(-c2ccc(Cl)cc2)oc1COC(C)(C)C(=O)O in this assay.
Result: inactive

Task: Entry Cc1ccc(C)cc1 : call = ?
Result: inactive

Task: GET /call?item= CN(C)Cc1cc(C(C)(C)C)c(O)c(C(C)(C)C)c1 returns the recorded outcome of this test.
Result: inactive

Task: For O=c1oc2cc(O)ccc2c2oc3cc(O)ccc3c12 , what call appears in the results of this test?
Result: inactive

Task: Identify the outcome logged in this assay for the compound shown: c1ccsc1
Result: inactive

Task: Test call for this compound, please: O=C(O)c1cc(-c2ccc(F)cc2F)ccc1O
Result: inactive

Task: Could you check what this test reported for O=[N+]([O-])c1cccc(C(F)(F)F)c1 ?
Result: inactive

Task: Recorded test outcome, item NC(=O)c1cccc([N+](=O)[O-])c1
Result: inactive

Task: Hey, what did the test say about O=C1CCCCCCCCCCCCCCCO1 ?
Result: active

Task: GET /call?item= CCCCCCCC/C=C\CCCCCCCCN returns the recorded outcome of this test.
Result: active

Task: What is the recorded call for this compound in the test? ClCCl
Result: inactive

Task: What did this assay record as the result for CCC(COC(=O)CCS)(COC(=O)CCS)COC(=O)CCS ?
Result: inactive

Task: Give the logged outcome of this assay for the following compound: S=C([S-])NCCNC(=S)[S-].S=C([S-])NCCNC(=S)[S-].[Mn+2].[Zn+2]
Result: inactive

Task: Outcome logged for CCc1ccc(Br)cc1 in this assay:
Result: inactive

Task: Test call, this compound: O[C@@H]([C@H](O)[C@H](O)CBr)[C@H](O)CBr
Result: inactive

Task: Outcome logged for CN(C)C(=O)COC(=O)Cc1ccc(OC(=O)c2ccc(N=C(N)N)cc2)cc1 in this assay:
Result: inactive

Task: GET /call?item= NC(=S)NC(N)=S returns the recorded outcome of this test.
Result: inactive

Task: Answer briefly: the call reported for CCn1c2ccccc2c2cc([N+](=O)[O-])ccc21 in this assay.
Result: inactive

Task: What classification did CCc1cccc(CC)c1NC(=O)CN(CC(=O)O)CC(=O)O end up with in this test?
Result: inactive

Task: Record request — test call for COc1ccc2c(c1)c(CC(=O)OC/C=C(\C)CC/C=C(\C)CCC=C(C)C)c(C)n2C(=O)c1ccc(Cl)cc1
Result: inactive

Task: Given C#C[C@]1(O)CC[C@H]2[C@@H]3[C@H](C)CC4=C(CCC(=O)C4)[C@H]3CC[C@@]21C , state the outcome it received in this test.
Result: inactive

Task: What call does the record list for O=C(O)[C@H](O)[C@@H](O)[C@H](O[C@@H]1O[C@H](CO)[C@H](O)[C@H](O)[C@H]1O)[C@H](O)CO ?
Result: inactive

Task: Identify the outcome logged in this assay for the compound shown: O=C(Nc1ccc2c(O)c(N=Nc3ccc(N=Nc4ccc(S(=O)(=O)O)cc4)cc3)c(S(=O)(=O)O)cc2c1)c1ccccc1
Result: inactive

Task: State the result this test recorded for C=Cc1cccc(C)c1 .
Result: inactive

Task: Returns: the outcome recorded for O=[N+]([O-])c1ccc(O)cc1C(F)(F)F in this assay.
Result: inactive

Task: Entry CCCCCCCCCCCCOC(=O)c1ccc(O)cc1 : call = ?
Result: inactive

Task: Write down the call the test reported for this compound. Item: CN1CCC[C@@H]1CCO[C@](C)(c1ccccc1)c1ccc(Cl)cc1
Result: active

Task: Record request — test call for CC[N+](CC)(CC)CCOc1ccc(/C=C/c2ccccc2)cc1
Result: active

Task: What is the recorded call for this compound in the test? COc1cc(S(=O)(=O)O)c(C)cc1N=Nc1c(O)ccc2cc(S(=O)(=O)O)ccc12
Result: inactive

Task: What did this assay record as the result for COc1c(C)c2c(c(O)c1C/C=C(\C)CCC(=O)OCCN1CCOCC1)C(=O)OC2 ?
Result: inactive

Task: Entry CCO[C@@H]1O[C@H](C(COCc2ccccc2)OCc2ccccc2)[C@H](OCc2ccccc2)[C@H]1O (stereo not given in full) : call = ?
Result: inactive

Task: Look up the recorded call for CCCC(=O)OCOC(=O)C1=C(C)NC(C)=C(C(=O)OC)C1c1cccc(Cl)c1Cl (stereo not given) in this test.
Result: inactive

Task: Recorded test outcome, item Nc1nc(N)nc(-c2cc(Cl)ccc2Cl)n1
Result: inactive

Task: Called result for CC(C)OC(=O)C(O)(CC(=O)O)CC(=O)O
Result: inactive

Task: Check the results log: what was the call for CC(=O)Oc1cc2c(s1)CCN(C(C(=O)C1CC1)c1ccccc1F)C2 (stereo not given) ?
Result: inactive

Task: What is the recorded call for this compound in the test? O=C(O)c1cccc(C(F)(F)F)c1
Result: inactive

Task: Look up the recorded call for O=C(O)CCN(C1(C(=O)NO)CCCC1)S(=O)(=O)c1ccc(Oc2ccc(F)cc2)cc1 in this test.
Result: inactive

Task: // outcome(item) with item = CC(C)=CCNc1ncnc2c1ncn2[C@@H]1O[C@H](CO)[C@@H](O)[C@H]1O
Result: inactive

Task: GET /call?item= CCCCCC/C=C\CCCCCCCC(=O)O returns the recorded outcome of this test.
Result: inactive

Task: Look up the recorded call for Nc1ccc(C(=O)O)c(O)c1 in this test.
Result: inactive

Task: What outcome does the record of this test show for CC(CO)Oc1ccccc1 (stereo not given) ?
Result: inactive

Task: Write down the call the test reported for this compound. Item: CC/C=C\CCCCCO
Result: inactive

Task: Fill in: this test's call for CC(C)(C)NSc1nc2ccccc2s1 is ___
Result: inactive

Task: Given CC(N=C(NC#N)Nc1ccncc1)C(C)(C)C (stereo not given) , state the outcome it received in this test.
Result: inactive

Task: So what was the verdict on Nc1nc(-c2ccccc2)cs1 in this test?
Result: inactive

Task: Could you kindly confirm the outcome this assay logged for CCCCC(CC)CN1CN(CC(CC)CCCC)CC(C)(N)C1 (stereo not given) ?
Result: active

Task: Field: outcome | Entry: OC[C@@H](O)[C@@H](O)CO
Result: inactive

Task: Status in this test for C=Cc1ccccc1C=C ?
Result: inactive

Task: Dear colleague, could you share the recorded outcome for CCN1C(=O)c2ccccc2C1Nc1ccc(OCCN2CCCCC2)cc1 (stereo not given) when you have a moment?
Result: inactive

* * *

assay: qHTS assay to identify small molecule antagonists of the thyroid receptor (TR) signaling pathway - cell viability counter screen (AID 743064); details: GH3.TRE-Luc viability, CellTiter-Fluor, 24 h; series mostly up to 70.3 µM; further: nearly all actives have a fitted effect of over 50% in size
Inconclusive results are not listed. The source made the active and inactive calls. Calls come from the whole dose curve; as a rule, active = well fitted cell-killing curve with a large enough effect in the repeat runs; inconclusive = weak or mixed curves, or effect the other way; inactive = no such curve, though single readings can be large or run the other way.
Field 'call' accepts active, inactive

Task: For CCCC1CCC(=O)CC1 , what call appears in the results of this test?
Result: inactive

Task: Assay outcome for Nc1nc(-c2ccccc2)cs1 : what was it?
Result: inactive

Task: Outcome? Cc1c(C)c2c(c(C)c1O)CC[C@@](C)(CCC[C@H](C)CCC[C@H](C)CCCC(C)C)O2
Result: inactive

Task: Called result for O=C(O)c1cc(O)c2ccccc2c1O
Result: active

Task: Short answer needed: outcome of this test for CC(C)(C)c1csc(-c2cc3cc(OCc4ccccc4CC(=O)O)ccc3o2)n1 ?
Result: active

Task: What did this assay record as the result for CCc1ccc(Br)cc1 ?
Result: inactive

Task: Given COc1ccc(NC(=O)CC(C)=O)cc1 , state the outcome it received in this test.
Result: inactive

Task: Any idea what this test logged for Nc1nc(N)nc(-c2cc(Cl)ccc2Cl)n1 ?
Result: inactive

Task: What outcome does the record of this test show for CCCCCCCC/C=C\CCCCCCCCN ?
Result: inactive

Task: Name the outcome recorded for CC1=Nc2ccccc2C1(C)C in the assay.
Result: inactive

Task: Write down the call the test reported for this compound. Item: NC(=O)c1cccc([N+](=O)[O-])c1
Result: inactive

Task: Which outcome did this test record for the compound COc1ccc(-c2coc3cc(O)ccc3c2=O)cc1 ?
Result: inactive

Task: Can you look up the reported call for CCCCOC(=O)CC for me?
Result: inactive

Task: Name the outcome recorded for O=C(O)[C@H](O)[C@@H](O)[C@H](O[C@@H]1O[C@H](CO)[C@H](O)[C@H](O)[C@H]1O)[C@H](O)CO in the assay.
Result: inactive

Task: Write down the call the test reported for this compound. Item: Cc1ccc(C)cc1
Result: inactive

Task: What did this assay record as the result for O=C(/C=C/c1ccccc1)OC/C=C/c1ccccc1 ?
Result: inactive

Task: Assay result, entry OCCN1CCN(CCCN2c3ccccc3Sc3ccc(C(F)(F)F)cc32)CC1 — outcome?
Result: active

Task: Per the records of this test, what outcome belongs to Oc1cc(Cl)cc(Cl)c1Cl ?
Result: inactive

Task: Assay outcome for OC[C@H]1O[C@H](O[C@H]2O[C@H](CO)[C@@H](O)[C@H](O)[C@H]2O)[C@H](O)[C@@H](O)[C@@H]1O : what was it?
Result: inactive

Task: # outcome recorded in this test, key = CC(C)Cn1cnc2c(N)nc3ccccc3c21
Result: inactive

Task: Short answer needed: outcome of this test for O=C(Oc1ccccc1)Oc1ccccc1 ?
Result: inactive

Task: // outcome(item) with item = O=C1CCc2cc(OCCCCc3nnnn3C3CCCCC3)ccc2N1
Result: inactive

Task: Which outcome did this test record for the compound CC1(C)CCC[C@]2(C)[C@H]3CCO[C@]3(C)CC[C@@H]12 ?
Result: inactive

Task: # fetch the recorded call for Nc1ccc(C(=O)O)c(O)c1 here
Result: inactive

Task: Outcome logged for Cc1cccc(C(=O)O)c1O in this assay:
Result: inactive

Task: What was the test verdict on CCCCOC(=O)CO ?
Result: inactive

Task: Returns: the outcome recorded for C#CC1(O)CC[C@H]2[C@@H]3CCC4=CCCC[C@@H]4[C@H]3CC[C@@]21C (some centres not stated) in this assay.
Result: active

FYI, the data here is from PubChem BioAssay (Tox21).
